- Test system: BDF1 mice, P388/VCR leukemia ip, median survival T/C
- ASSAY_NAME: NCI In Vivo Anticancer Drug Screen. Data for tumor model P388 Leukemia resistant to Vincristine; NSC 67574 (intraperitoneal) in B6D2F1 (BDF1) mice
- ASSAY_CONTEXT: endpoint: median survival time; dose: 5.0 mg/kg/injection; schedule: Q01DX010 (ip); vehicle: saline
- Method: The antitumor activity of compounds was measured in mice bearing transplantable tumors. Survival or tumor size were measured and the results are expressed as the measurement made in the treated group (T) divided by the measurement made in the vehicle treated control group (C). The tumor model used in this assay is P388 Leukemia resistant to Vincristine; NSC 67574 (intraperitoneal) in B6D2F1 (BDF1) mice
Inconclusive results and toxic doses are left out. Rule for the calls: active = survival T/C of 150% or more; inactive = T/C below 125% in these data.
Possible outcomes: active, inactive

{"columns": ["COMPOUND", "ASSIGNED_LABEL"],
 "data": [
  ["CC1CN1P(=S)(N1CC1C)N1CC1C (stereo not given)", "inactive"],
  ["N#[N+]c1cnc([O-])[nH]c1=O", "active"],
  ["NC(Cc1ccc(N(CCCl)CCCl)cc1)C(=O)O (stereo not given)", "active"],
  ["C[n+]1ccc(NC(=O)c2ccc(NC(=O)c3cccc(C(=O)Nc4ccc(C(=O)Nc5cc[n+](C)cc5)cc4)c3)cc2)cc1", "inactive"],
  ["Oc1cc(CN(CCCl)CCCl)c(O)cc1CN(CCCl)CCCl", "inactive"]
]}

---

- Tested on: BDF1 mice, P388/VCR leukemia ip, median survival T/C
- ASSAY_NAME: NCI In Vivo Anticancer Drug Screen. Data for tumor model P388 Leukemia resistant to Vincristine; NSC 67574 (intraperitoneal) in B6D2F1 (BDF1) mice
- ASSAY_CONTEXT: endpoint: median survival time; dose: 32.0 mg/kg/injection; schedule: Q01DX010 (ip); vehicle: saline; higher = longer survival
Toxic doses and inconclusive results are not listed.
Listing of recorded T/C by entry.

{"columns": ["MOLECULE", "MEASURED_ON", "T/C"],
 "data": [
  ["Nc1cc(C(=O)Nc2ccc(C3=NCCN3)cc2)cc(C(=O)Nc2ccc(C3=NCCN3)cc2)c1", "BDF1 mice, P388/VCR leukemia ip, median survival T/C", "156 % of control"],
  ["CC(CCC(C)OS(C)(=O)=O)OS(C)(=O)=O (centres undefined)", "BDF1 mice, P388/VCR leukemia ip, median survival T/C", "90 % of control"],
  ["CCCCn1cnc2c(=S)nc[nH]c21", "BDF1 mice, P388/VCR leukemia ip, median survival T/C", "96 % of control"],
  ["c1ccc(CNc2ncnc3[nH]ncc23)cc1", "BDF1 mice, P388/VCR leukemia ip, median survival T/C", "100 % of control"]
]}

---

- Test system: BDF1 mice, P388/VCR leukemia ip, median survival T/C
- ASSAY_NAME: NCI In Vivo Anticancer Drug Screen. Data for tumor model P388 Leukemia resistant to Vincristine; NSC 67574 (intraperitoneal) in B6D2F1 (BDF1) mice
- ASSAY_CONTEXT: endpoint: median survival time; dose: 6.25 mg/kg/injection; schedule: Q01DX010 (ip); vehicle: saline
Inconclusive results and toxic doses are left out. Rule for the calls: active = survival T/C of 150% or more; inactive = T/C below 125% in these data.
Possible outcomes: Yes = active, No = inactive

{"columns": ["COMPOUND", "ASSIGNED_LABEL"],
 "data": [
  ["O=C(O)CCCc1ccc(N(CCCl)CCCl)cc1", "No"],
  ["N=[N+]=CC(=O)OCC(N)C(=O)O (centres undefined)", "Yes"],
  ["O=NN(CCCl)C(=O)NCCCl", "Yes"],
  ["C[C@H]1C(=O)O[C@@H]2CCN3CC=C(COC(=O)[C@](C)(O)[C@@]1(C)O)[C@H]23", "No"]
]}
